Protocol Summary: Plasma protein binding by equilibrium dialysis, human plasma
Format: in vitro ADME
Test Conditions: male, human, plasma, nominal 250 ng/mL, Mean ± SD
Starred links: 1 amine or outer side, 2 acyl side, 3 side chain; linkers in the order of their positions; H or OH if unused. Positions of bridges follow the written chain, without caps; N, C: chain ends. Non-standard residues stand in square brackets, D forms with d. Residues, ends and D or L forms follow the SMILES beside them. *: point of attachment. X1 = CC[C@H](C)[C@@H](N[*:1])[C@@H](O)CC(=O)O[C@H](C(=O)[C@H](C)C(=O)[*:2])C(C)C; NMeY = CN[C@@H](Cc1ccc(O)cc1)C(=O)O; dNMeL = CN[C@H](CC(C)C)C(=O)O; Pyruvoyl = CC(=O)C(=O)*
Measure: recovery at 250 ng/mL (%)

CC[C@H](C)[C@H]1NC(=O)[C@@H](NC(=O)[C@@H](CC(C)C)N(C)C(=O)[C@@H]2CCCN2C(=O)C(C)=O)[C@@H](C)OC(=O)[C@H](Cc2ccc(OC)cc2)N(C)C(=O)[C@@H]2CCCN2C(=O)[C@H](CC(C)C)NC(=O)[C@@H](C)C(=O)[C@H](C(C)C)OC(=O)C[C@@H]1O [Plitidepsin] (Pyruvoyl-P[dNMeL]T[X1]LP[NMeY](Me); ester 3-C) | 77

###

Protocol Summary: Plasma protein binding by equilibrium dialysis, rat plasma
Format: in vitro ADME
Test Conditions: male, CD, independent of drug concentration
Starred links: 1 amine or outer side, 2 acyl side, 3 side chain; linkers in the order of their positions; H or OH if unused. Positions of bridges follow the written chain, without caps; N, C: chain ends. Non-standard residues stand in square brackets, D forms with d. Residues, ends and D or L forms follow the SMILES beside them. *: point of attachment. X1 = CC[C@H](C)[C@@H](N[*:1])[C@@H](O)CC(=O)O[C@H](C(=O)[C@H](C)C(=O)[*:2])C(C)C; NMeY = CN[C@@H](Cc1ccc(O)cc1)C(=O)O; dNMeL = CN[C@H](CC(C)C)C(=O)O; Pyruvoyl = CC(=O)C(=O)*
Measure: fraction unbound

CC[C@H](C)[C@H]1NC(=O)[C@@H](NC(=O)[C@@H](CC(C)C)N(C)C(=O)[C@@H]2CCCN2C(=O)C(C)=O)[C@@H](C)OC(=O)[C@H](Cc2ccc(OC)cc2)N(C)C(=O)[C@@H]2CCCN2C(=O)[C@H](CC(C)C)NC(=O)[C@@H](C)C(=O)[C@H](C(C)C)OC(=O)C[C@@H]1O [Plitidepsin] (Pyruvoyl-P[dNMeL]T[X1]LP[NMeY](Me); ester 3-C) | 0.04

###

Protocol Summary: Drug-induced cytotoxicity in Vero E6 cells in the absence of virus
Assay type: cell-based
Test Conditions: monkey, Vero E6 cells (ATCC CRL-1586), uninfected, Vero E6 cells without virus
Starred links: 1 amine or outer side, 2 acyl side, 3 side chain; linkers in the order of their positions; H or OH if unused. Positions of bridges follow the written chain, without caps; N, C: chain ends. Non-standard residues stand in square brackets, D forms with d. Residues, ends and D or L forms follow the SMILES beside them. *: point of attachment. X1 = CC[C@H](C)[C@@H](N[*:1])[C@@H](O)CC(=O)O[C@H](C(=O)[C@H](C)C(=O)[*:2])C(C)C; NMeY = CN[C@@H](Cc1ccc(O)cc1)C(=O)O; dNMeL = CN[C@H](CC(C)C)C(=O)O; Pyruvoyl = CC(=O)C(=O)*
Measure: CC50 at 3 d (nM)

CC[C@H](C)[C@H]1NC(=O)[C@@H](NC(=O)[C@@H](CC(C)C)N(C)C(=O)[C@@H]2CCCN2C(=O)C(C)=O)[C@@H](C)OC(=O)[C@H](Cc2ccc(OC)cc2)N(C)C(=O)[C@@H]2CCCN2C(=O)[C@H](CC(C)C)NC(=O)[C@@H](C)C(=O)[C@H](C(C)C)OC(=O)C[C@@H]1O [Plitidepsin] (Pyruvoyl-P[dNMeL]T[X1]LP[NMeY](Me); ester 3-C) | 2900
